Target: BTK (Homo sapiens (Human), UniProt Q06187)
Sequence (Q06187 whole entry): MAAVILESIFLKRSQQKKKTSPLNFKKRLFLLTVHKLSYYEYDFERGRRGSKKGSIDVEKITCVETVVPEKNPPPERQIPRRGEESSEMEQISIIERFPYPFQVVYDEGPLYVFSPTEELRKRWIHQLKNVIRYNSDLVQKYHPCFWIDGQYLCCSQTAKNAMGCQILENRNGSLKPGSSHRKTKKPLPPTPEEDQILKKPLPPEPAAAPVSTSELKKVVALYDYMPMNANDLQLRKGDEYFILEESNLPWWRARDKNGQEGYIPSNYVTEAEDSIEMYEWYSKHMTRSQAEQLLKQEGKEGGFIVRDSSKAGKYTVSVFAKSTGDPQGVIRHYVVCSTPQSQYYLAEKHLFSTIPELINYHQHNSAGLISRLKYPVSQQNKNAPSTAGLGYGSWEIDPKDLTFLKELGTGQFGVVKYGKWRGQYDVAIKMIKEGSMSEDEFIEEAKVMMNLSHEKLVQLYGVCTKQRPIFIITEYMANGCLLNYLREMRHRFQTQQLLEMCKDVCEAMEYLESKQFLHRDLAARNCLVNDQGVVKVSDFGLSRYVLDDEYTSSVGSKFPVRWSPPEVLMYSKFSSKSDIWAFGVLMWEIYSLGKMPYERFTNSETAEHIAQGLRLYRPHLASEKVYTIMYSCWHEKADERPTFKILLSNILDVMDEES
Assay: Z'-LYTE kinase inhibition assay against BTK
Type: biochemical
Details: compound at 100 nM; ATP concentration at Km
Description: Inhibitory activities of compounds against BTK, EGFR T790M, EGFR L858R, and EGFR L858R/T790M were measured using Z′-LYTE® Method from Life Technologies as briefly described in the following. Test Compounds are screened in 1% DMSO (final) in the well. For 10 point titrations, 3-fold serial dilutions are conducted from the starting concentration. All ATP Solutions are diluted to a 4× working concentration in Kinase Buffer (50 mM HEPES pH 7.5, 0.01% BRIJ-35, 10 mM MgCl2, 1 mM EGTA). […]
Catalogue of inhibition at 0.1 µM readings, one per entry.

Here's what some known entries look like.
{"molecule": "C=CC(=O)N1CCC(c2cc(-c3ccc(Oc4ncccc4F)cc3F)cc3cncnc23)C1 (stereo not drawn) [C108]", "inhibition at 0.1 µM": "> 50%"}
{"molecule": "C=CC(=O)N1CCCC(c2cc(-c3ccccc3)cc3cncnc23)C1 (stereo not drawn) [C020]", "inhibition at 0.1 µM": "< 50%"}
{"molecule": "C=CC(=O)Nc1cccc(-c2nc(-c3ccc(Oc4ncccc4C(F)(F)F)cc3)n3c(N)nccc23)c1 [C220]", "inhibition at 0.1 µM": "> 50%"}
{"molecule": "C=CC(=O)N1CCC(c2cc(-c3ccc(Oc4ccccc4)cc3)n3cnccc23)C1 (stereo not drawn) [C063]", "inhibition at 0.1 µM": "> 50%"}
{"molecule": "C=CC(=O)Nc1cccc(-c2cc(-c3ccc(C(=O)Nc4cc(C5CC5)ccn4)cc3F)c(N)c3cncnc23)c1 [C202]", "inhibition at 0.1 µM": "> 50%"}
{"molecule": "C=CC(=O)N1CCC(c2cc(-c3ccc(Oc4cc(C(F)(F)F)ccn4)cc3)cc3cnc(N)nc23)C1 (stereo not drawn) [C104]", "inhibition at 0.1 µM": "< 50%"}
{"molecule": "C=CC(=O)Nc1cccc(-c2cc(-c3ccc(C(=O)Nc4ccccc4)cc3F)cc3cncnc23)c1 [C089]", "inhibition at 0.1 µM": "> 50%"}
{"molecule": "C=CC(=O)Nc1cccc(-c2cc(-c3ccc(C(=O)Nc4cccc(F)c4)nc3)cc3cncnc23)c1 [C092]", "inhibition at 0.1 µM": "> 50%"}

Exercise: # return recorded inhibition at 0.1 µM for input C=CC(=O)N1CCC(c2cc(-c3ccc(C(=O)Nc4cc(C5CC5)ccn4)cc3)n3cnccc23)C1 (stereo not drawn) [C164]
Solution: > 50%

----------
Readings of inhibition at 0.1 µM for the listed compounds
Molecular target: BTK (Homo sapiens (Human), UniProt Q06187)
Assay: Z'-LYTE kinase inhibition assay against BTK
Type: biochemical
Settings: compound at 100 nM; ATP concentration at Km

Check out these entries, answers already filled in.
{"compound": "C=CC(=O)N1CCC(c2cc(-c3ccc(C(=O)Nc4ccccn4)cc3F)n3cnccc23)C1 (stereo not shown)", "recorded.measurement": "< 50%"}
{"compound": "C=CC(=O)Nc1cccc(-c2cc(-c3ccncc3)cc3cncnc23)c1", "recorded.measurement": "> 50%"}
{"compound": "C=CC(=O)Nc1cccc(-c2cc(-c3ccc(Oc4ccccc4)cc3)cc3cncnc23)c1", "recorded.measurement": "> 50%"}
{"compound": "C=CC(=O)Nc1cccc(-c2cc(-c3ccc(C(=O)Nc4ccccn4)cc3)cc3cncnc23)c1", "recorded.measurement": "> 50%"}
{"compound": "C=CC(=O)Nc1cccc(-c2cc(-c3ccc(Oc4cccc(C(F)(F)F)c4)nc3)cc3cncnc23)c1", "recorded.measurement": "> 50%"}
{"compound": "C=CC(=O)Nc1cccc(-c2cc(-c3ccc(C(=O)Nc4ccccn4)cc3)c(N)c3cnc(N)nc23)c1", "recorded.measurement": "< 50%"}
{"compound": "C=CC(=O)N1CCCC(c2cc(-c3cccnc3)cc3cnc(N)nc23)C1 (stereo not shown)", "recorded.measurement": "< 50%"}
{"compound": "C=CC(=O)N1CCC(c2cc(-c3ccc(C(=O)Nc4ccccn4)cc3Cl)cc3cncnc23)C1 (stereo not shown)", "recorded.measurement": "> 50%"}

Exercise: Query inhibition at 0.1 µM for `C=CC(=O)Nc1cccc(-c2cc(-c3ccc(C(=O)Nc4ccccn4)cc3)c(N)c3cncnc23)c1`
Solution: < 50%

Exercise: Input `C=CC(=O)Nc1cccc(-c2cc(-c3ccc(C(=O)Nc4cc(C5CC5)ccn4)c(OC)c3)cc3cncnc23)c1` , output reported inhibition at 0.1 µM.
Solution: < 50%
